# protocol text: Liver microsomes stability, human
# Assay type: in vitro ADME
# experimental setup: Table 6, read-out: Metabolic Stability Half-life, Human
value kind: half-life at 1 µM (min)

molecule	value kind	units text	numeric readout
Cc1ncc(S(=O)(=O)Nc2ccc(C)c3c(C#N)c[nH]c23)s1 [Compound 1]	half-life at 1 µM	min	66
Cc1ccc(NS(=O)(=O)c2cccc(C#N)c2)c2[nH]cc(C#N)c12 [Compound E7820, E7820, reference compound]	half-life at 1 µM	min	51
[2H]C([2H])([2H])c1ncc(S(=O)(=O)Nc2ccc(C)c3c(C#N)c[nH]c23)s1 [Compound 143]	half-life at 1 µM	min	93

----------
# protocol text: Single dose plasma pharmacokinetics after IV and PO administration
# Format: in vivo, female BALB/c mice
# experimental setup: female, BALB/c, mouse, plasma, po, 20 mg/kg, oral administration, female BALB/c mice; Table 7
value kind: Cmax (ng/mL)

molecule	numeric readout
[2H]C([2H])([2H])c1ncc(S(=O)(=O)Nc2ccc(C)c3c(C#N)c[nH]c23)s1 [Compound 143]	19300
Cc1ncc(S(=O)(=O)Nc2ccc(C)c3c(C#N)c[nH]c23)s1 [Compound 1]	9850

----------
# system: MDR1 (Homo sapiens, UniProt P08183)
# Construct: expressed in transfected cells; host or cells: MDCK-MDR1 cells (MDCK host)
# Sequence (P08183 whole entry): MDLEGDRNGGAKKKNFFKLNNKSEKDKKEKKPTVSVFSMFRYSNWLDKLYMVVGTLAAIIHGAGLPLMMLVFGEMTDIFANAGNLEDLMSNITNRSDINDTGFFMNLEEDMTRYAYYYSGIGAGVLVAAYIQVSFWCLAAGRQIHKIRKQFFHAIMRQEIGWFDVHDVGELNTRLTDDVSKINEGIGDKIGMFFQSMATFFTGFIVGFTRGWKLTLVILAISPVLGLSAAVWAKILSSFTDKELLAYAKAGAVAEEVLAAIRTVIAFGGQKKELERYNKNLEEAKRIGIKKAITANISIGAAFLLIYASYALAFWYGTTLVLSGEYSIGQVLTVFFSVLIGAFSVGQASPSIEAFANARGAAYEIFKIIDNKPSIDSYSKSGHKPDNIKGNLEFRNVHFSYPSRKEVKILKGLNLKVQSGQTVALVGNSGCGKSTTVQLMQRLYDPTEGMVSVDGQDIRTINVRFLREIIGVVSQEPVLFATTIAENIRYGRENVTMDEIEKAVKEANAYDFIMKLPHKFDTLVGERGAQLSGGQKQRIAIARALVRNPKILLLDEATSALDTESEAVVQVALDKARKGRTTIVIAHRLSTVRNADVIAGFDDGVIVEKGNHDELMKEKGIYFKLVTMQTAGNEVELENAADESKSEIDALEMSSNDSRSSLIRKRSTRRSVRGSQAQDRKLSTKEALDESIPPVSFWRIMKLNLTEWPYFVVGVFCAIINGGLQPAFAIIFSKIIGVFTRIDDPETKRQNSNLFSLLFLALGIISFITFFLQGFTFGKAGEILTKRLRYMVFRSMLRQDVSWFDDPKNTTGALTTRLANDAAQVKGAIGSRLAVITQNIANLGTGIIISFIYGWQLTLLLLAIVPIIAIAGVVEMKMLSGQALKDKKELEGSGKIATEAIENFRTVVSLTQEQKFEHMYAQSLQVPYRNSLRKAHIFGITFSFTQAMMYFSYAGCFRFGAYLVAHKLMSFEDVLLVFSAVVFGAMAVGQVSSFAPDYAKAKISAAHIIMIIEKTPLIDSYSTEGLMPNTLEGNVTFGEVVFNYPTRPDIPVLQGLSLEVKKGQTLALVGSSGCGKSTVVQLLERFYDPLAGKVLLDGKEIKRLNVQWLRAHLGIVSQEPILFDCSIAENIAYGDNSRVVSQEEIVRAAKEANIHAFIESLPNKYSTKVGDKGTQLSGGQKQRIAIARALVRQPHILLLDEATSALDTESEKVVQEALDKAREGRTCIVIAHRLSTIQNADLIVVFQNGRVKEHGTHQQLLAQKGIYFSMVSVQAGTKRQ
# protocol text: MDCK-MDR1 permeability / efflux assay
# Assay type: in vitro ADME, canine
# experimental setup: dog, MDCK-MDR1, pH 7.4, MDCK cells; Table 6; read-out: MDCK Permeability Efflux Ratio
value kind: efflux ratio at 2 h, 1 µM

compound	value kind	numeric readout
[2H]C([2H])([2H])c1ncc(S(=O)(=O)Nc2ccc(C)c3c(C#N)c[nH]c23)s1 [Compound 143]	efflux ratio at 2 h, 1 µM	12
Cc1ccc(NS(=O)(=O)c2cccc(C#N)c2)c2[nH]cc(C#N)c12 [Compound E7820, E7820, reference compound]	efflux ratio at 2 h, 1 µM	30
Cc1ncc(S(=O)(=O)Nc2ccc(C)c3c(C#N)c[nH]c23)s1 [Compound 1]	efflux ratio at 2 h, 1 µM	26

----------
# protocol text: Single dose plasma pharmacokinetics after IV and PO administration
# Assay type: in vivo, female BALB/c mice
# experimental setup: female, BALB/c, mouse, plasma, iv, 1 mg/kg, IV 1 mg/kg, plasma, female BALB/c mice; read-out: AUC(0-t)
AUC(0-t) by entry:
value kind: AUC(0-t) (ng·h/mL)

compound	numeric readout
Cc1ccc(NS(=O)(=O)c2cccc(C#N)c2)c2[nH]cc(C#N)c12 [Compound E7820, E7820, reference compound]	1640
Cc1ncc(S(=O)(=O)Nc2ccc(C)c3c(C#N)c[nH]c23)s1 [Compound 1]	1860

----------
# protocol text: Single dose plasma pharmacokinetics after IV and PO administration
# Format: in vivo, female BALB/c mice
# experimental setup: mouse; IV 1 mg/kg, plasma, female BALB/c mice

compound	half-life / min
Cc1ncc(S(=O)(=O)Nc2ccc(C)c3c(C#N)c[nH]c23)s1 [Compound 1]	40.2
Cc1ccc(NS(=O)(=O)c2cccc(C#N)c2)c2[nH]cc(C#N)c12 [Compound E7820, E7820, reference compound]	32.5

----------
# system: MDR1 (Homo sapiens, UniProt P08183)
# Construct: expressed in transfected cells; host or cells: MDCK-MDR1 cells (MDCK host)
# protocol text: MDCK-MDR1 permeability / efflux assay
# Type: in vitro ADME, canine
# experimental setup: dog, MDCK-MDR1, pH 7.4; MDCK cells, apical to basolateral; Table 6

molecule	Papp A→B at 2 h, 1 µM, ×10⁻⁶ cm/s
[2H]C([2H])([2H])c1ncc(S(=O)(=O)Nc2ccc(C)c3c(C#N)c[nH]c23)s1	2.9
Cc1ncc(S(=O)(=O)Nc2ccc(C)c3c(C#N)c[nH]c23)s1	1.9
Cc1ccc(NS(=O)(=O)c2cccc(C#N)c2)c2[nH]cc(C#N)c12 [Compound E7820, E7820, reference compound]	1.1
